Entries with their measured IC50, system Peroxisome proliferator-activated receptor gamma (Homo sapiens, UniProt P37231):
Measured endpoint: IC50 (nM)

Guide cases for IC50, answers given:
Cc1oc(-c2ccccc2)nc1CCOc1cccc(Cc2nnn(-c3ccccc3)c2C(=O)O)c1	1480
Cc1oc(-c2ccccc2)nc1CCOc1ccc(Cc2cn(-c3ccccc3)cc2C(=O)O)cc1	890
Cc1oc(-c2ccccc2)nc1CCOc1ccc(Cc2c(C(=O)O)cnn2-c2ccccc2)cc1	1670

1 = Cc1oc(-c2ccccc2)nc1CCOc1cccc(Cc2cn(C)cc2C(=O)O)c1
2 = Cc1oc(-c2ccccc2)nc1CCOc1ccc(Cc2nn(-c3ccccc3)nc2C(=O)O)cc1
*Q* Lab notebook, comparison: 1 versus 2 , higher IC50 goes to which? Reply with the label of the item you choose.
*A* 1

---

Tested system: Peroxisome proliferator-activated receptor alpha (Homo sapiens)
Test details: Agonist activity at human PPARalpha ligand binding domain expressed in HEK293 cells by Gal4 transactivation assay
pEC50: −log10 of the molar value.
Measured endpoint: pEC50

Cc1oc(-c2ccccc2)nc1CCOc1cccc(Cc2cn(-c3ccccc3)nc2C(=O)O)c1	6.51
Cc1oc(-c2ccccc2)nc1CCOc1cccc(-c2nn(-c3ccccc3)nc2C(=O)O)c1	5.40
Cc1oc(-c2ccccc2)nc1CCOc1ccc(-c2nn(-c3ccccc3)nc2CC(=O)O)cc1	5.38
Cc1oc(-c2ccccc2)nc1CCOc1ccc(Cc2nn(-c3ccccc3)nc2CC(=O)O)cc1	7.96
Cc1oc(-c2ccccc2)nc1CCOc1cccc(Cc2cn(-c3ccccc3)cc2C(=O)O)c1	6.92

A = Cc1oc(-c2ccccc2)nc1CCOc1ccc(Cc2cn(-c3ccccc3)cc2C(=O)O)cc1
B = Cc1oc(-c2ccccc2)nc1CCOc1cccc(Cc2nn(-c3ccccc3)nc2C(=O)O)c1
*Q* Given A and given B , which shows the smaller recorded pEC50? Reply with the label of the item you choose.
*A* B
(B: 5.72, A: 6.18)

---

Tested system: Peroxisome proliferator-activated receptor alpha (Homo sapiens, UniProt Q07869)
Sequence (Q07869 whole entry, the tested form may be a part): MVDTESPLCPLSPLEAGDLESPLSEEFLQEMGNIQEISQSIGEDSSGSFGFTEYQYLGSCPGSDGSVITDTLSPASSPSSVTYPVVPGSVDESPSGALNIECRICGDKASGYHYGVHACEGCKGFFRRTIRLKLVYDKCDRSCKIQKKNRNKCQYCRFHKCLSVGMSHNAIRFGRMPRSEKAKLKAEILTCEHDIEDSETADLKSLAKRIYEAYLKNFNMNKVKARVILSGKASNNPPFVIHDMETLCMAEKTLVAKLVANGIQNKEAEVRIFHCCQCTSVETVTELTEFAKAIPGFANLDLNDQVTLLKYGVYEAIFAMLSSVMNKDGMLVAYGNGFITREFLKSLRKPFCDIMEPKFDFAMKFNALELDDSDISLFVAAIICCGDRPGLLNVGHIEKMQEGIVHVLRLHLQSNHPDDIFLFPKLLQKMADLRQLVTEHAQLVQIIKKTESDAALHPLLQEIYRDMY
Test details: Agonist activity at human PPARalpha ligand binding domain expressed in HEK293 cells by Gal4 transactivation assay
Measured endpoint: EC50 (µM)

Guide cases for EC50, answers given:
Cc1oc(-c2ccccc2)nc1CCOc1ccc(Cc2nn(-c3ccccc3)cc2C(=O)O)cc1	0.126
Cc1oc(-c2ccccc2)nc1CCOc1cccc(Cc2nn(-c3ccccc3)nc2CC(=O)O)c1	0.006

I = Cc1oc(-c2ccccc2)nc1CCOc1ccc(Cc2nn(-c3ccccc3)nc2C(=O)O)cc1
II = Cc1oc(-c2ccccc2)nc1CCOc1cccc(Cc2cn(C)cc2C(=O)O)c1
*Q* Given I and given II , which shows the smaller recorded EC50? Reply with the label of the item you choose.
*A* II
(II: 1.47 µM, I: 6.15 µM)

---

Tested system: Peroxisome proliferator-activated receptor alpha (Homo sapiens)
Test details: Binding affinity to PPARalpha by fluorescence polarization assay
Measured endpoint: IC50 (nM)

Guide cases for IC50, answers given:
Cc1oc(-c2ccccc2)nc1CCOc1cccc(Cc2cn(-c3ccccc3)cc2C(=O)O)c1	90
Cc1oc(-c2ccccc2)nc1CCOc1cccc(Cc2nn(-c3ccccc3)nc2CC(=O)O)c1	85
Cc1oc(-c2ccccc2)nc1CCOc1ccc(-c2nn(-c3ccccc3)nc2CC(=O)O)cc1	3350

P = Cc1oc(-c2ccccc2)nc1CCOc1ccc(Cc2nn(-c3ccccc3)nc2C(=O)O)cc1
Q = Cc1oc(-c2ccccc2)nc1CCOc1cccc(Cc2nnn(-c3ccccc3)c2C(=O)O)c1
R = Cc1oc(-c2ccccc2)nc1CCOc1cccc(-c2nn(-c3ccccc3)nc2C(=O)O)c1
*Q* Please list these molecules in decreasing order of IC50. Give the labels in the order requested.
*A* Q, P, R
(Q: 7290 nM, P: 2770 nM, R: 1610 nM)

---

Tested system: Peroxisome proliferator-activated receptor gamma (Homo sapiens, UniProt P37231)
Sequence (P37231 whole entry): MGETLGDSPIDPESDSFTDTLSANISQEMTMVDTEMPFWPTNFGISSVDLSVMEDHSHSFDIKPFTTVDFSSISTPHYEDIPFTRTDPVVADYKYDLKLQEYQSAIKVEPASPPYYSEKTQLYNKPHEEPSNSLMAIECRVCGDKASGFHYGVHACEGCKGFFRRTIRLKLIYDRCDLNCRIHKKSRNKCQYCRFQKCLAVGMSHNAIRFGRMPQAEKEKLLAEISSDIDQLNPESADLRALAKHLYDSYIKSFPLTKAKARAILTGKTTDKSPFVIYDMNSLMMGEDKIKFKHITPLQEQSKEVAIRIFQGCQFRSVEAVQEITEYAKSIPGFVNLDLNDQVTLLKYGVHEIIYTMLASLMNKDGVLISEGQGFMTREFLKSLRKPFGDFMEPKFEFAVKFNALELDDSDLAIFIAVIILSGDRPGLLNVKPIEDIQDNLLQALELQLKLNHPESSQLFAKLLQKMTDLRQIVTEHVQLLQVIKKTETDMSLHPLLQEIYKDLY
Measured endpoint: IC50 (nM)

Cc1oc(-c2ccccc2)nc1CCOc1cccc(Cc2c(C(=O)O)nnn2-c2ccccc2)c1	750
Cc1oc(-c2ccccc2)nc1CCOc1ccc(Cc2nn(-c3ccccc3)cc2C(=O)O)cc1	2160
Cc1oc(-c2ccccc2)nc1CCOc1cccc(-c2nn(-c3ccccc3)nc2C(=O)O)c1	670
Cc1oc(-c2ccccc2)nc1CCOc1ccc(Cc2nnn(-c3ccccc3)c2C(=O)O)cc1	880
Cc1oc(-c2ccccc2)nc1CCOc1ccc(Cc2nn(-c3ccccc3)nc2CC(=O)O)cc1	7

---

Reported EC50 values follow for various molecules
Tested system: Peroxisome proliferator-activated receptor alpha (Homo sapiens)
Test details: Agonist activity at human PPARalpha ligand binding domain expressed in HEK293 cells by Gal4 transactivation assay

Guide cases for EC50, answers given:
Cc1oc(-c2ccccc2)nc1CCOc1ccc(Cc2nnn(-c3ccccc3)c2C(=O)O)cc1	> 15 µM
Cc1oc(-c2ccccc2)nc1CCOc1ccc(-c2nn(-c3ccccc3)nc2C(=O)O)cc1	> 15 µM
Cc1oc(-c2ccccc2)nc1CCOc1cccc(-c2nn(-c3ccccc3)nc2CC(=O)O)c1	0.39 µM
Cc1oc(-c2ccccc2)nc1CCOc1cccc(Cc2c(C(=O)O)nnn2-c2ccccc2)c1	> 15 µM

*Q* What does the data say about its EC50? Entry: Cc1oc(-c2ccccc2)nc1CCOc1cccc(Cc2nn(-c3ccccc3)cc2C(=O)O)c1
*A* 0.011 µM

*Q* What does the data say about its EC50? Entry: Cc1oc(-c2ccccc2)nc1CCOc1cccc(Cc2nnn(-c3ccccc3)c2C(=O)O)c1
*A* > 15 µM

*Q* What does the data say about its EC50? Entry: Cc1oc(-c2ccccc2)nc1CCOc1ccc(Cc2c(C(=O)O)cnn2-c2ccccc2)cc1
*A* > 25 µM

---

Reported pIC50 values follow for various compounds
Tested system: Peroxisome proliferator-activated receptor alpha (Homo sapiens)
Test details: Binding affinity to PPARalpha by fluorescence polarization assay
pIC50: −log10 of the molar value.

Cc1oc(-c2ccccc2)nc1CCOc1ccc(Cc2c(C(=O)O)nnn2-c2ccccc2)cc1	< 4.60

*Q* Param readout = pIC50; param system = Peroxisome proliferator-activated receptor alpha (Homo sapiens); param query = Cc1oc(-c2ccccc2)nc1CCOc1ccc(Cc2c(C(=O)O)cnn2-c2ccccc2)cc1 ; response: value
*A* < 4.60

*Q* Param readout = pIC50; param system = Peroxisome proliferator-activated receptor alpha (Homo sapiens); param query = Cc1oc(-c2ccccc2)nc1CCOc1cccc(Cc2c(C(=O)O)nnn2-c2ccccc2)c1 ; response: value
*A* < 4.60

*Q* Param readout = pIC50; param system = Peroxisome proliferator-activated receptor alpha (Homo sapiens); param query = Cc1oc(-c2ccccc2)nc1CCOc1cccc(Cc2cn(-c3ccccc3)nc2C(=O)O)c1 ; response: value
*A* 6.85
